Tested on: Clostridium sporogenes DSM 1664
Test: growth (OD595) fold change vs plate DMSO controls (fold change (ratio)); higher = more growth
Settings: incubation time: 27 h, anaerobic, 37 °C
Counter-ions that a name gives are not always drawn.
Outcome: Yes for growth of at least 0.9; No for anything lower.

Compound: Nc1ccc(S(=O)(=O)Nc2ccnn2-c2ccccc2)cc1 [Sulfaphenazole] (20 µM)
System: Clostridium sporogenes DSM 1664
Class assignment: Yes
--
Compound: CCN(CC)C(=O)C1(c2ccccc2)CC1CN (stereo not drawn) [Milnacipran hydrochloride] (20 µM)
System: Clostridium sporogenes DSM 1664
Class assignment: Yes
--
Compound: NC12CC3CC(CC(C3)C1)C2 [Adamantamine fumarate] (20 µM)
System: Clostridium sporogenes DSM 1664
Class assignment: Yes
--
Compound: CCC(=O)[C@@]1(C)[C@H](C)C[C@H]2[C@@H]3CCC4=CC(=O)C=C[C@]4(C)[C@H]3[C@@H](O)C[C@@]21C [Rimexolone] (20 µM)
System: Clostridium sporogenes DSM 1664
Class assignment: Yes
--
Compound: Cn1cnc([N+](=O)[O-])c1Sc1ncnc2[nH]cnc12 [Azathioprine] (20 µM)
System: Clostridium sporogenes DSM 1664
Class assignment: Yes
--
Compound: CCN1CCN(c2cc3c(cc2F)c(=O)c(C(=O)O)cn3C2CC2)CC1 [Enrofloxacin] (20 µM)
System: Clostridium sporogenes DSM 1664
Class assignment: No
